Tested on: NCI-H2085
assay-text: relative viability (nuclei count vs DMSO), 5 days (fraction); higher = more cells survive
condition-summary: first compound 0.4 µM
Documented relative viability across a set of compounds

Solved cases below.
| compound | test-readout | reported-measurement |
| --- | --- | --- |
| C[C@@H]1CN(CC(=O)Nc2ccc3c(c2)Cc2cccc(-c4cc(=O)cc(N5CCOCC5)o4)c2S3)C[C@H](C)O1 + C[C@@H](Oc1cc(-c2cnn(C3CCNCC3)c2)cnc1N)c1c(Cl)ccc(F)c1Cl [Crizotinib] (partner 1 µM) | relative viability | 0.773 |
| COc1cc(N2CCC(C(N)=O)CC2)ccc1Nc1nc(N)c(Cl)c(Nc2ccccc2S(=O)(=O)C(C)C)n1 [HG-5-88-01] + CC(C)C[C@H](NC(=O)[C@H](Cc1ccccc1)NC(=O)c1cnccn1)B(O)O [Bortezomib] (partner 0.002 µM) | relative viability | 0.922 |
| COc1cc(N2CCC(C(N)=O)CC2)ccc1Nc1nc(N)c(Cl)c(Nc2ccccc2S(=O)(=O)C(C)C)n1 [HG-5-88-01] + C[C@@H](Oc1cc(-c2cnn(C3CCNCC3)c2)cnc1N)c1c(Cl)ccc(F)c1Cl [Crizotinib] (partner 1 µM) | relative viability | 0.873 |
| C[C@@H]1CN(CC(=O)Nc2ccc3c(c2)Cc2cccc(-c4cc(=O)cc(N5CCOCC5)o4)c2S3)C[C@H](C)O1 + C[C@]1(O)C[C@@H](c2nc(-c3ccc4ccc(-c5ccccc5)nc4c3)c3c(N)nccn32)C1 [Linsitinib] (partner 1 µM) | relative viability | 0.827 |
| C[C@@H]1CN(CC(=O)Nc2ccc3c(c2)Cc2cccc(-c4cc(=O)cc(N5CCOCC5)o4)c2S3)C[C@H](C)O1 + CS(=O)(=O)CCNCc1ccc(-c2ccc3ncnc(Nc4ccc(OCc5cccc(F)c5)c(Cl)c4)c3c2)o1 [Lapatinib] (partner 2 µM) | relative viability | 0.624 |

Query (compound): COc1cc(N2CCC(C(N)=O)CC2)ccc1Nc1nc(N)c(Cl)c(Nc2ccccc2S(=O)(=O)C(C)C)n1 [HG-5-88-01] + COc1cccc2cc(-c3nc([C@H]4CC[C@H](C(=O)O)CC4)n4ncnc(N)c34)[nH]c12 [OSI-027] (partner 0.5 µM) ; field requested: relative viability
0.615

Query (compound): COc1cc(N2CCC(C(N)=O)CC2)ccc1Nc1nc(N)c(Cl)c(Nc2ccccc2S(=O)(=O)C(C)C)n1 [HG-5-88-01] + N=C(N)NC(=N)NCCc1ccccc1 [Phenformin] (partner 250 µM) ; field requested: relative viability
0.685

Query (compound): COc1cc(N2CCC(C(N)=O)CC2)ccc1Nc1nc(N)c(Cl)c(Nc2ccccc2S(=O)(=O)C(C)C)n1 [HG-5-88-01] + COc1cc2c(Oc3ccc(NC(=O)C4(C(=O)Nc5ccc(F)cc5)CC4)cc3F)ccnc2cc1OCCCN1CCOCC1 [Foretinib] (partner 0.25 µM) ; field requested: relative viability
0.907

Query (compound): C[C@@H]1CN(CC(=O)Nc2ccc3c(c2)Cc2cccc(-c4cc(=O)cc(N5CCOCC5)o4)c2S3)C[C@H](C)O1 + N=C(N)NC(=N)NCCc1ccccc1 [Phenformin] (partner 250 µM) ; field requested: relative viability
0.694

Query (compound): COc1cc(N2CCC(C(N)=O)CC2)ccc1Nc1nc(N)c(Cl)c(Nc2ccccc2S(=O)(=O)C(C)C)n1 [HG-5-88-01] + CCNC(=O)c1noc(-c2cc(C(C)C)c(O)cc2O)c1-c1ccc(CN2CCOCC2)cc1 [Luminespib] (partner 0.01 µM) ; field requested: relative viability
0.407
